Assay: folding enthalpy; higher = less favourable; fluorescence melt of hairpins on a sequencing array, two-state fit
Conditions: sodium 0.088 M
Entries and their folding enthalpy values follow.

{"input.sequence": "GCGCAACGAAAGTTTCGC (((.(((....))).)))", "result.units": "kcal/mol", "folding enthalpy": -43}
{"input.sequence": "GTGCATTCGAAAGAACAC (((..(((....))))))", "result.units": "kcal/mol", "folding enthalpy": -7.63}
{"input.sequence": "GCCATGCGAAAGCTAGGC (((..((....))..)))", "result.units": "kcal/mol", "folding enthalpy": -27.3}
{"input.sequence": "GGGTCGTCGAAAGACCCC (((..(((....))))))", "result.units": "kcal/mol", "folding enthalpy": -21.6}
{"input.sequence": "GCACGGCGAAAGCCAGGC ((..(((....)))..))", "result.units": "kcal/mol", "folding enthalpy": -14.9}
{"input.sequence": "GATCCATCGCTGGATC ((((((....))))))", "result.units": "kcal/mol", "folding enthalpy": -39.1}

###

Test: melting temperature; fluorescence melt of hairpins on a sequencing array, two-state fit, raised by 9.35 °C to match UV melts
Conditions: sodium 0.088 M
Binary label based on Tm with cut-off 50 °C: below gives label 1, not below gives label 0.

{"input.sequence": "GGGAGTCGAAAGACCCCC (((.(((....))).)))", "class": "label 0"}
{"input.sequence": "GCCACGCGAAAGCAGGGC (((..((....))..)))", "class": "label 0"}
{"input.sequence": "GTGACCGGAAACGATCAC ((((.((....)).))))", "class": "label 1"}
{"input.sequence": "GTAGAGCGAAAGCTTAC (((.(((....))))))", "class": "label 1"}
{"input.sequence": "GCTTCGCGAAAGCGACGC ((.((((....)))).))", "class": "label 0"}
{"input.sequence": "GGATGAGAAATCATCC ((((((....))))))", "class": "label 0"}
{"input.sequence": "GTTTCGGGAAACCGAGAC ((.((((....)))).))", "class": "label 1"}
{"input.sequence": "GCAAATTCGAAAGAATGC (((..(((....))))))", "class": "label 1"}
{"input.sequence": "GGGACTGGAAACGGTCTC (.(((.(....).))).)", "class": "label 1"}
{"input.sequence": "AGGGAGAAATCCCT (((((....)))))", "class": "label 1"}
{"input.sequence": "GCGTTTGTACGC ((((....))))", "class": "label 0"}
{"input.sequence": "GCGAAGCGAAAGCATCGC ((((.((....)).))))", "class": "label 0"}

###

Experiment: melting temperature; fluorescence melt of hairpins on a sequencing array, two-state fit, raised by 9.35 °C to match UV melts
Settings: sodium 0.088 M
quantity.measured: Tm

{"input.sequence": "GAGTACGAAAGTAGACTC ((((((....)))..)))", "measured.value": "35.8 °C"}
{"input.sequence": "GAGCAAGCGAAAGCTCTC (((..(((....))))))", "measured.value": "35.1 °C"}
{"input.sequence": "GTCAGCGAAAGCTCGAC ((((((....))).)))", "measured.value": "48 °C"}
{"input.sequence": "GGGCACGAAAGTGCTCCC ((((((....)))..)))", "measured.value": "53.1 °C"}
{"input.sequence": "GTGGGCGGAAACGCTCAC (((.(((....))).)))", "measured.value": "59.6 °C"}
{"input.sequence": "GCTTTGTCGAAAGACAGC (((..(((....))))))", "measured.value": "35.3 °C"}
{"input.sequence": "GGTGCTGGAAACAGCATC (.(((((....))))).)", "measured.value": "54.1 °C"}
{"input.sequence": "GATCACTAAGTGATC ((((((...))))))", "measured.value": "55.2 °C"}
{"input.sequence": "GCTGCACGAAAGTGAAGC (((.(((....))).)))", "measured.value": "60.5 °C"}
{"input.sequence": "GCTTCCGGAAACGGAAAC (.(((((....))))).)", "measured.value": "40.5 °C"}
{"input.sequence": "GATCGCGAAAGCGGAATC ((((((....)))..)))", "measured.value": "34.8 °C"}
{"input.sequence": "GCTCCTCGAAAGAGCAGC (((.(((....))).)))", "measured.value": "40.6 °C"}
